Target: Mu-type opioid receptor (Homo sapiens)
Sequence (P35372 whole entry): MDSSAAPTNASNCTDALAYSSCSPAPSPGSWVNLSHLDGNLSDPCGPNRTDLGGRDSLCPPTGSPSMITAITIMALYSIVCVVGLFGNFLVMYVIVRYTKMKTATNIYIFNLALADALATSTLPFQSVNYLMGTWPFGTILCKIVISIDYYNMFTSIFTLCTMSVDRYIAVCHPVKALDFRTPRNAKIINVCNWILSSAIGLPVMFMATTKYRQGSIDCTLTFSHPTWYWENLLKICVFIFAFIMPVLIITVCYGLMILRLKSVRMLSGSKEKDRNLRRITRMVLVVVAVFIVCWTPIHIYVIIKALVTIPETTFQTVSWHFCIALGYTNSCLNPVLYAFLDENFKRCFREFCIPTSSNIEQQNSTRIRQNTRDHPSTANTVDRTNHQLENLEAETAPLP
Experiment: Displacement of [3H]DAMGO from human mu opioid receptor expressed in CHO cells by scintillation counting analysis
Format: cell-based
Listed compounds paired with reported Ki

{"SMILES_STRUCTURE": "O=C(Cc1ccccc1)O[C@@]12Cc3cc(-c4ccc(Cl)cc4)cnc3[C@@H]3Oc4c(O)ccc5c4[C@@]31CCN(CC1CC1)[C@@H]2C5", "ASSAYED_SYSTEM": "Mu-type opioid receptor (Homo sapiens)", "Ki": "1.04 nM"}
{"SMILES_STRUCTURE": "Oc1ccc2c3c1O[C@H]1c4ncc(-c5ccc(Cl)cc5)cc4C[C@@]4(OCc5ccccc5)[C@@H](C2)N(CC2CC2)CC[C@]314", "ASSAYED_SYSTEM": "Mu-type opioid receptor (Homo sapiens)", "Ki": "8.42 nM"}
{"SMILES_STRUCTURE": "CN1CC[C@]23c4c5ccc(O)c4O[C@H]2c2ncc(-c4ccc(Cl)cc4)cc2C[C@@]3(OCc2ccccc2)[C@H]1C5", "ASSAYED_SYSTEM": "Mu-type opioid receptor (Homo sapiens)", "Ki": "4.69 nM"}
{"SMILES_STRUCTURE": "CN1CC[C@]23c4c5ccc(O)c4O[C@H]2c2ncc(-c4ccc(Cl)cc4)cc2C[C@@]3(OC/C=C/c2ccccc2)[C@H]1C5", "ASSAYED_SYSTEM": "Mu-type opioid receptor (Homo sapiens)", "Ki": "0.41 nM"}
{"SMILES_STRUCTURE": "CO[C@@]12Cc3cc(-c4ccc(Cl)cc4)cnc3[C@@H]3Oc4c(O)ccc5c4[C@@]31CCN(C)[C@@H]2C5", "ASSAYED_SYSTEM": "Mu-type opioid receptor (Homo sapiens)", "Ki": "7.89 nM"}
{"SMILES_STRUCTURE": "Oc1ccc2c3c1O[C@H]1c4ncc(-c5ccc(Cl)cc5)cc4C[C@@]4(OC/C=C/c5ccccc5)[C@@H](C2)N(CC2CC2)CC[C@]314", "ASSAYED_SYSTEM": "Mu-type opioid receptor (Homo sapiens)", "Ki": "3.03 nM"}
{"SMILES_STRUCTURE": "CN1CC[C@]23c4c5ccc(O)c4O[C@H]2c2ncc(-c4ccc(Cl)cc4)cc2C[C@@]3(OC(=O)c2ccccc2)[C@H]1C5", "ASSAYED_SYSTEM": "Mu-type opioid receptor (Homo sapiens)", "Ki": "84 nM"}
{"SMILES_STRUCTURE": "O=C(CCc1ccccc1)O[C@@]12Cc3cc(-c4ccc(Cl)cc4)cnc3[C@@H]3Oc4c(O)ccc5c4[C@@]31CCN(CC1CC1)[C@@H]2C5", "ASSAYED_SYSTEM": "Mu-type opioid receptor (Homo sapiens)", "Ki": "2.58 nM"}
{"SMILES_STRUCTURE": "CN1CC[C@]23c4c5ccc(O)c4O[C@H]2c2ncc(-c4ccc(Cl)cc4)cc2C[C@@]3(OC(=O)CCc2ccccc2)[C@H]1C5", "ASSAYED_SYSTEM": "Mu-type opioid receptor (Homo sapiens)", "Ki": "0.94 nM"}
{"SMILES_STRUCTURE": "CO[C@@]12Cc3cc(-c4ccc(Cl)cc4)cnc3[C@@H]3Oc4c(O)ccc5c4[C@@]31CCN(CC1CC1)[C@@H]2C5", "ASSAYED_SYSTEM": "Mu-type opioid receptor (Homo sapiens)", "Ki": "41.9 nM"}
{"SMILES_STRUCTURE": "Oc1ccc2c3c1O[C@H]1c4ncc(-c5ccc(Cl)cc5)cc4C=C4[C@@H](C2)N(CC2CC2)CC[C@]431", "ASSAYED_SYSTEM": "Mu-type opioid receptor (Homo sapiens)", "Ki": "13 nM"}
{"SMILES_STRUCTURE": "CN1CC[C@]23c4c5ccc(O)c4O[C@H]2c2ncc(-c4ccc(Cl)cc4)cc2C[C@@]3(OCCCc2ccccc2)[C@H]1C5", "ASSAYED_SYSTEM": "Mu-type opioid receptor (Homo sapiens)", "Ki": "0.54 nM"}
{"SMILES_STRUCTURE": "CN1CC[C@]23c4c5ccc(O)c4O[C@H]2c2ncc(-c4ccc(Cl)cc4)cc2C[C@@]3(OC(=O)Cc2ccccc2)[C@H]1C5", "ASSAYED_SYSTEM": "Mu-type opioid receptor (Homo sapiens)", "Ki": "1.43 nM"}
{"SMILES_STRUCTURE": "O=C(O[C@@]12Cc3cc(-c4ccc(Cl)cc4)cnc3[C@@H]3Oc4c(O)ccc5c4[C@@]31CCN(CC1CC1)[C@@H]2C5)c1ccccc1", "ASSAYED_SYSTEM": "Mu-type opioid receptor (Homo sapiens)", "Ki": "192 nM"}

###

Target: UniProtKB P41145
Assay: Agonist activity at human kappa opioid receptor expressed in CHO cells assessed as [35S]GTPgammaS binding by scintillation counting analysis
Recorded EC50 by entry
MEASUREMENT_NAME: EC50

{"SMILES_STRUCTURE": "CO[C@@]12Cc3cc(-c4ccc(Cl)cc4)cnc3[C@@H]3Oc4c(O)ccc5c4[C@@]31CCN(C)[C@@H]2C5", "ASSAYED_SYSTEM": "UniProtKB P41145", "RESULT": "0.633 µM"}
{"SMILES_STRUCTURE": "Oc1ccc2c3c1O[C@H]1c4ncc(-c5ccc(Cl)cc5)cc4C[C@@]4(OCc5ccccc5)[C@@H](C2)N(CC2CC2)CC[C@]314", "ASSAYED_SYSTEM": "UniProtKB P41145", "RESULT": "0.027 µM"}
{"SMILES_STRUCTURE": "CN1CC[C@]23c4c5ccc(O)c4O[C@H]2c2ncc(-c4ccc(Cl)cc4)cc2C[C@@]3(OC(=O)CCc2ccccc2)[C@H]1C5", "ASSAYED_SYSTEM": "UniProtKB P41145", "RESULT": "0.136 µM"}
{"SMILES_STRUCTURE": "O=C(CCc1ccccc1)O[C@@]12Cc3cc(-c4ccc(Cl)cc4)cnc3[C@@H]3Oc4c(O)ccc5c4[C@@]31CCN(CC1CC1)[C@@H]2C5", "ASSAYED_SYSTEM": "UniProtKB P41145", "RESULT": "0.013 µM"}
{"SMILES_STRUCTURE": "O=C(Cc1ccccc1)O[C@@]12Cc3cc(-c4ccc(Cl)cc4)cnc3[C@@H]3Oc4c(O)ccc5c4[C@@]31CCN(CC1CC1)[C@@H]2C5", "ASSAYED_SYSTEM": "UniProtKB P41145", "RESULT": "0.026 µM"}
{"SMILES_STRUCTURE": "CN1CC[C@]23c4c5ccc(O)c4O[C@H]2c2ncc(-c4ccc(Cl)cc4)cc2C[C@@]3(OCc2ccccc2)[C@H]1C5", "ASSAYED_SYSTEM": "UniProtKB P41145", "RESULT": "0.215 µM"}
{"SMILES_STRUCTURE": "CN1CC[C@]23c4c5ccc(O)c4O[C@H]2c2ncc(-c4ccc(Cl)cc4)cc2C[C@@]3(OC(=O)Cc2ccccc2)[C@H]1C5", "ASSAYED_SYSTEM": "UniProtKB P41145", "RESULT": "0.109 µM"}

###

Target: Kappa-type opioid receptor (Homo sapiens, UniProt P41145)
Sequence (P41145 whole entry): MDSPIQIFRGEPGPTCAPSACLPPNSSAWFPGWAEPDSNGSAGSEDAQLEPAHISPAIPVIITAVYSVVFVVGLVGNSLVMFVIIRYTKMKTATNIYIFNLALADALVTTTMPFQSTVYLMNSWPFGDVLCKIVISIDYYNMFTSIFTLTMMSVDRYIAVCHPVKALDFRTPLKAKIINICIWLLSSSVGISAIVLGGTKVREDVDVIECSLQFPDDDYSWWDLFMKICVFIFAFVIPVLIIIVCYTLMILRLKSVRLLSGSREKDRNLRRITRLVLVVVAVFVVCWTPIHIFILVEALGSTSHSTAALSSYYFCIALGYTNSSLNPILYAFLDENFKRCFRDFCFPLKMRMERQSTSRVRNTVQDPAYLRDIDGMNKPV
Assay: Displacement of [3H]U69,593 from human kappa opioid receptor expressed in CHO cells by scintillation counting analysis
Format: cell-based
pKi: −log10 of the molar value.
Catalogue of pKi values

{"SMILES_STRUCTURE": "CO[C@@]12Cc3cc(-c4ccc(Cl)cc4)cnc3[C@@H]3Oc4c(O)ccc5c4[C@@]31CCN(CC1CC1)[C@@H]2C5", "pKi": 8.27}
{"SMILES_STRUCTURE": "CN1CC[C@]23c4c5ccc(O)c4O[C@H]2c2ncc(-c4ccc(Cl)cc4)cc2C[C@@]3(OCCCc2ccccc2)[C@H]1C5", "pKi": 8.82}
{"SMILES_STRUCTURE": "Oc1ccc2c3c1O[C@H]1c4ncc(-c5ccc(Cl)cc5)cc4C=C4[C@@H](C2)N(CC2CC2)CC[C@]431", "pKi": 8.22}
{"SMILES_STRUCTURE": "CO[C@@]12Cc3cc(-c4ccc(Cl)cc4)cnc3[C@@H]3Oc4c(O)ccc5c4[C@@]31CCN(C)[C@@H]2C5", "pKi": 7.55}
{"SMILES_STRUCTURE": "O=C(Cc1ccccc1)O[C@@]12Cc3cc(-c4ccc(Cl)cc4)cnc3[C@@H]3Oc4c(O)ccc5c4[C@@]31CCN(CC1CC1)[C@@H]2C5", "pKi": 8.51}
{"SMILES_STRUCTURE": "O=C(O[C@@]12Cc3cc(-c4ccc(Cl)cc4)cnc3[C@@H]3Oc4c(O)ccc5c4[C@@]31CCN(CC1CC1)[C@@H]2C5)c1ccccc1", "pKi": 6.93}
{"SMILES_STRUCTURE": "CN1CC[C@]23c4c5ccc(O)c4O[C@H]2c2ncc(-c4ccc(Cl)cc4)cc2C[C@@]3(OCc2ccccc2)[C@H]1C5", "pKi": 7.31}
